- run description: Plasma pharmacokinetics of minocycline, twice-daily ascending dose (MAD) phase, loading dose then BID dosing for 7 days
- Set-up: species or system human (healthy adult subjects)
- run parameters: human, in vivo, 100 mg, Cl (plasma clearance)
readout: clearance (mL/min)
Please reply with the bare figure in mL/min and do not write the unit itself.

// recorded clearance for CN(C)c1ccc(O)c2c1C[C@H]1C[C@H]3[C@H](N(C)C)C(O)=C(C(N)=O)C(=O)[C@@]3(O)C(O)=C1C2=O : 58.2

###

- run description: Plasma pharmacokinetics of minocycline, twice-daily ascending dose (MAD) phase, loading dose then BID dosing for 7 days
- Parameters: species or system human (healthy adult subjects)
- run parameters: human, in vivo, 200 mg, AUC0-t
readout: AUC(0-t) (ng·h/mL)
Please reply with the bare figure in ng·h/mL and do not write the unit itself.

// recorded AUC(0-t) for CN(C)c1ccc(O)c2c1C[C@H]1C[C@H]3[C@H](N(C)C)C(O)=C(C(N)=O)C(=O)[C@@]3(O)C(O)=C1C2=O : 80700

###

- run description: Plasma pharmacokinetics of minocycline, twice-daily ascending dose (MAD) phase, loading dose then BID dosing for 7 days
- Parameters: species or system human (healthy adult subjects)
- run parameters: human, in vivo, 100 mg, Vss (volume of distribution at steady state)
readout: Vd (L)
Please reply with the bare figure in L and do not write the unit itself.

// recorded Vd for CN(C)c1ccc(O)c2c1C[C@H]1C[C@H]3[C@H](N(C)C)C(O)=C(C(N)=O)C(=O)[C@@]3(O)C(O)=C1C2=O [minocycline] : 72

###

- run description: Plasma pharmacokinetics of minocycline, single ascending dose (SAD) phase, 1 hour intravenous infusion
- Parameters: species or system human (healthy adult subjects)
- run parameters: human, in vivo; single 600 mg IV dose, mean, N=9
readout: half-life (h)
Please reply with the bare figure in h and do not write the unit itself.

// recorded half-life for CN(C)c1ccc(O)c2c1C[C@H]1C[C@H]3[C@H](N(C)C)C(O)=C(C(N)=O)C(=O)[C@@]3(O)C(O)=C1C2=O : 17.3

###

- run description: Plasma pharmacokinetics of minocycline, twice-daily ascending dose (MAD) phase, loading dose then BID dosing for 7 days
- Parameters: species or system human (healthy adult subjects)
- run parameters: human, in vivo, 300 mg, single dose 300, 500, or 600 mg (pooled), BID dosing 300 mg, mean, N=18
- Experimental: This example describes outcomes among healthy adult subjects in a randomized, double-blind, placebo-controlled, single- and multiple ascending dose (SAD/MAD) study of 6 intravenous doses (cohorts) ranging from 100 mg to 600 mg of minocycline. […] Within each cohort, subjects received a single dose on Day 1, followed by a loading dose on Day 4, then 7 days of twice-daily dosing (Days 4-10), followed by a single dose on Day 11 as shown in Table 1. […]
readout: half-life (h)
Please reply with the bare figure in h and do not write the unit itself.

// recorded half-life for CN(C)c1ccc(O)c2c1C[C@H]1C[C@H]3[C@H](N(C)C)C(O)=C(C(N)=O)C(=O)[C@@]3(O)C(O)=C1C2=O [minocycline] : 19.2

###

- run description: Plasma pharmacokinetics of minocycline, twice-daily ascending dose (MAD) phase, loading dose then BID dosing for 7 days
- Parameters: species or system human (healthy adult subjects)
- run parameters: human, in vivo, 100 mg, single dose 100 mg, BID dosing 100 mg, mean, N=6
- Method: This example describes outcomes among healthy adult subjects in a randomized, double-blind, placebo-controlled, single- and multiple ascending dose (SAD/MAD) study of 6 intravenous doses (cohorts) ranging from 100 mg to 600 mg of minocycline. […] Within each cohort, subjects received a single dose on Day 1, followed by a loading dose on Day 4, then 7 days of twice-daily dosing (Days 4-10), followed by a single dose on Day 11 as shown in Table 1. […]
readout: half-life (h)
Please reply with the bare figure in h and do not write the unit itself.

// recorded half-life for CN(C)c1ccc(O)c2c1C[C@H]1C[C@H]3[C@H](N(C)C)C(O)=C(C(N)=O)C(=O)[C@@]3(O)C(O)=C1C2=O : 15.9
